# assayed.target: T1, human CD30, native, expressed on cells (human)
# T1 construct: also called native CD30; CD30 on L540, L428, A431/CD30, Karpas299, SUDHL-1 and other CD30-positive cells
# T1 chain: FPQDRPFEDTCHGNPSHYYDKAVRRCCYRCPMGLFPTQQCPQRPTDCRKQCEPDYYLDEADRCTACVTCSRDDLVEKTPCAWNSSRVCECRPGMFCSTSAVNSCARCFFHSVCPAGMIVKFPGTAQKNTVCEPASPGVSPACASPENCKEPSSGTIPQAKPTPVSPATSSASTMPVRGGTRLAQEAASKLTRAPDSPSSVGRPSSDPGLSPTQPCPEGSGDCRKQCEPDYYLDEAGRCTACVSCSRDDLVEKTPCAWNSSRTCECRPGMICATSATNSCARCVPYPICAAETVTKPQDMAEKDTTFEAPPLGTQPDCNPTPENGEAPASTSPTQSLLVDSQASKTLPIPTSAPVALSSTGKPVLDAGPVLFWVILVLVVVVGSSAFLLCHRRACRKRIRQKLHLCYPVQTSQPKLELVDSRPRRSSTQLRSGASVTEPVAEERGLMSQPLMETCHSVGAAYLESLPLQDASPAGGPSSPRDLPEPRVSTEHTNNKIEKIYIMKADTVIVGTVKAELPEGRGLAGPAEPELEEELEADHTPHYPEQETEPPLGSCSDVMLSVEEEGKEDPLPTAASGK
# protocol.notes: competitive FACS on L540 cells, unlabeled MAb 2.5 µg/ml; competitor: biotin-T14
measure.name: inhibition of the binding of biotin-MAb (%)
Lab book: enter the figure in %, no units written.

Field: example entries. Status: answers known.
T13 MAb (antibody, V domains shown) VH: QVQLQQSGAELAKPGASVKMSCKASGYTFTTYWMHWVKQRPGQGLEWIGYINPSTGYTDYNEKFKDKATLTADKSSSTAYMQLSSLTSEDSAVYYCVRRGSYDGNPFAYWGQGTLVSVSA VL: DIVMTQSHKFMSTSVGDRVTITCKASQDVSTAVAWYQQKPGHSPKLLIYWASTRHTGVPDRFTGSGSGTDYTLTISSVQVEDLALYYCQQHYSTPFTFGSGTKLEIKR    108
T25 MAb (antibody, V domains shown) VH: QVTLKESGPGILQPSQTLSLTCSFSGFSLNTSGVGVGWIRQPSGKGLEWLAHIWWDDDERYNPVLKSRLTISKDTSSNQVFLKIANVDTADSATYYCVRSMVAWFPYWGRGTLVTVSA VL: DIVMSQSPSSLAVSVGEKFTVNCKSSQSLLYSSNQKNFLAWYQQKPGQSPKLLIYWASTRESGVPDRFIGSGSGTDFTLTISSVKAEDLAVYYCQQHYRYPWTFGGGTKLEIKR    -1.3
T6 MAb (antibody, V domains shown) VH: QVQLKESGPGLVTPSQSLSITCTVSGFSLSKYSIHWVRQPPGRGLEWLGMIWGVENTDYNSALKSRLSISKDNSKSQVFLKMNSLQSDDTAMYYCARKDLGLYGMNYWGQGISVTVSA VL: DIVMTQSQKFMSTSVGDRVSVTCKASQNVGTNVAWYQQKPGQSPKALFYSASYRYSGVPDRFIGSGSGTVFTLTISNVQSEDLAEYFCQQYNTYPLTFGSGTKLEIER    108

inhibition of the binding of biotin-MAb (%) recorded for this binder, T24 MAb (antibody, V domains shown) VH: QVQLQQPGAELVRPGASVKLSCKASGYSFTSYWIDWVKQRPGQGLEWIGNIYPSNAYTNYNQKFKDKATLTVDKSSSTAYMQLSSPTSEDSAVYYCTSVLDYFYAMDYWGQGTSVTVSS VL: DIQMTQTTSSLSASLGDRVTISCRASQDISNYLNWYQQKPDGTVKLLIYYTSRLHSGVPSRFSGSGSGTDYSLTISNLEQEDIATYFCQQVNTLPRTFGGGTKLEIKR , is 16.1
